So I've got a bunch of sequences here, and I need their folding enthalpy values.
PROTOCOL: folding enthalpy; higher = less favourable; fluorescence melt of hairpins on a sequencing array, two-state fit
CONDITION DETAILS: sodium 0.088 M
One number for each entry, in kcal/mol.

Return reported folding enthalpy values for all items listed beneath this line.
1. GACACGGGAAACTGTGTC (((((.(....).)))))
2. GCCCCTTCGAAAGAAGGC (((..(((....))))))
3. GTATATGGAAACATATGC (.(((((....))))).)
4. GTCAGCGAAAGCTCGAC ((((((....))).)))
5. GATCTTTGTGAAGATC ((((((....))))))
6. GATCGGGTGACCGATC ((((((....))))))
7. GATCTAGCTTTAGATC ((((((....))))))

Result ::
[-42.2, -8.55, -25, -19.8, -41.7, -36.4, -26.7]

Return reported folding enthalpy values for all items listed beneath this line.
1. GTGTATGGAAACATGCAC (((.(((....))).)))
2. GATCCACGAAAGTGCATC (((.(((....))).)))
3. GAGATGGGAAACCGTCTC ((((.((....)).))))
4. GGAGTGGGAAACTACTCC (((((.(....).)))))
5. GATCGTTGTCACGATC ((((((....))))))
6. GATCCTTCTAGGATC ((((((...))))))

Result ::
1: -33.9; 2: -16.1; 3: -38.2; 4: -24.8; 5: -40.9; 6: -30.6

====

PROTOCOL: folding enthalpy; higher = less favourable; fluorescence melt of hairpins on a sequencing array, two-state fit
CONDITION DETAILS: sodium 0.088 M
Assign true (1) to entries whose folding enthalpy meets or exceeds -20 kcal/mol; assign false (0) to the rest.

Please review the following examples before continuing.
MONOMER SEQUENCE | CLASS LABEL
GATCGTTAGTACGATC ((((((....)))))) | false (0)
GATCACCCAGTGATC ((((((...)))))) | false (0)
GAAACGGGAAACCGTTTC (((((((....))))))) | false (0)
GAATGCCGAAAGGCTTC (((.(((....)))))) | true (1)

With those in mind, consider the next sequence.
Query :: Please indicate if the recorded folding enthalpy for GTGTCCGAAAGGATACAC ((((((....)))..))) meets or exceeds -20 kcal/mol.
Result :: true (1)

====

PROTOCOL: folding enthalpy; higher = less favourable; fluorescence melt of hairpins on a sequencing array, two-state fit
CONDITION DETAILS: sodium 0.088 M
OUTCOME MEASURE: folding enthalpy (kcal/mol)
Answers are plain numbers, in kcal/mol.

# count of solved cases: 5
MONOMER SEQUENCE | folding enthalpy / kcal/mol
GGTGCGCGAAAGCGACC (((.(((....)))))) | -15.3
GATCCCCCCGGGATC ((((((...)))))) | -33.1
GCCCAGGGAAACTTGGGC (((((.(....).))))) | -36.8
GTATACGGAAACGTATAC (((((((....))))))) | -44.8
GATCAGGGAAACCTGGTC ((.((((....)))).)) | -29.2

Return reported folding enthalpy values for all items listed beneath this line.
1. CGGCCGGAAACGGACCG ((((((....))).)))
2. GGCAGCGAAAGCTCAGCC ((((((....)))..)))

Result ::
1. -25
2. -18.4

Return reported folding enthalpy values for all items listed beneath this line.
1. TATGCGAAAGCATA (((((....)))))
2. GGTATTGGAAACAGTACC ((((.((....)).))))
3. GATCATCTCGATGATC ((((((....))))))

Result ::
[-13.6, -32.2, -50.6]

Return reported folding enthalpy values for all items listed beneath this line.
1. GATCGGACAACCGATC ((((((....))))))
2. GGAGCGGGAAACCGTTCC (((.(((....))).)))
3. GGACAGGGAAACTTGTCC (((((.(....).)))))
4. GGTAATGGAAACATTATC (.(((((....))))).)
5. GCGTCGCGAAAGCAATGC ((.(.((....)).).))
6. GTTCTGGGAAACTAGAAC (((((.(....).)))))
7. GACACTGGAAACAGCGTC (((.(((....))).)))
8. GTGTCGGGAAACCGGCAC (((.(((....))).)))

Result ::
[-34.7, -38.4, -37.1, -26.8, -21.6, -29.6, -35.2, -45.1]

Return reported folding enthalpy values for all items listed beneath this line.
1. GCTCTACGAAAGTAAAGC (((.(((....))).)))
2. GTGCATCGAAAGATCAC (((.(((....))))))
3. GATGTTACGAAAGTAATC (((..(((....))))))
4. GATCGGCGAACCGATC ((((((....))))))
5. GCGTTCGAACGC ((((....))))
6. GGAGTCCCGAAAGGGTCC (((..(((....))))))

Result ::
1. -22.9
2. -24.2
3. -13.5
4. -38.2
5. -36
6. -12.4

Query :: Return the recorded folding enthalpy value; entry: GCGCTAACGAAAGTTCGC (((..(((....))))))
Result :: -21.8
